Kindly supply the reported TGI values for the records listed here.
System: SK-MEL-2 melanoma
Assay: NCI tumour cell line growth inhibition, 48 h
// note: answer is a bare numeric in µM

Field request: TGI | item: Clc1ccc(C2=CCN3CC=C(c4ccc(Cl)cc4)C23)cc1 29.6

Field request: TGI | item: Cc1cc(S(=O)(=O)/N=C(/NN)Nc2ccc(Cl)cc2)c(S)cc1Cl 76.9

Field request: TGI | item: CSc1nc2nc3c(nc2c(=O)n1C)C(=O)c1ccccc1C3=O 0.471

Field request: TGI | item: CC(C)OC(=S)Nc1ccc(Cl)c(/C=N/OC(C)(C)C)c1 37.5

---

Test system: CAKI-1 renal
Experiment: NCI tumour cell line growth inhibition, 48 h; in the data active means GI50 below about 0.43 µM; inactive means the rest
# output must be one of active, inactive

Please let me know the test result on file for O=C(NNc1ccc(Cl)cc1)C1CCC(CNS(=O)(=O)c2ccccc2Cl)CC1 (stereo not given) . inactive

Please let me know the test result on file for COc1ccccc1C1C(C#N)=C(N)Oc2n[nH]c(C)c21 (stereo not given) . inactive

Please let me know the test result on file for COc1ccc(-c2cncn2-c2cc(OC)c(OC)c(OC)c2)cc1 . active

Please let me know the test result on file for Cc1cc(-c2c(F)cc3c4nn([C@H]5CC[C@@H](N(C)C)CC5)c(=O)c-4cn(C4CC4)c3c2F)cc(C)n1 . active

Please let me know the test result on file for Cc1cc(C)c(C#N)c(Sc2nc(C)c([N+](=O)[O-])c(C)c2C#N)n1 . inactive

Please let me know the test result on file for C#Cc1cccc(Nc2nc(Cl)nc3cc(NC(=O)CCl)ccc23)c1 . inactive

Please let me know the test result on file for COc1cccc2cc(N(C)c3nc(C)nc4c3CCC4)ccc12 . active

Please let me know the test result on file for [N-]=[N+]=NCCCn1c2c(c3ccc([N+](=O)[O-])cc3c1=O)C(=O)c1cc(Br)ccc1-2 . inactive

Please let me know the test result on file for CC(C)N(Cc1ccc(CN(C(=O)CCl)C(C)C)cc1)C(=O)CCl . inactive

Please let me know the test result on file for CSc1nc2nc3c(nc2c(=O)n1C)C(=O)c1ccccc1C3=O . active

---

Test system: SF-268 CNS
Test: NCI tumour cell line growth inhibition, 48 h
Kindly supply the reported TGI values for the records listed here.

Please state recorded TGI (tested on SF-268 CNS) of ClCc1ccccc1Cn1cnc2ncnc(Cl)c21 24.4 µM

Please state recorded TGI (tested on SF-268 CNS) of Cc1ccc(C)c(N2C(=O)C(=O)C(c3nc4ccccc4o3)C(=O)C2=O)c1 > 100 µM

Please state recorded TGI (tested on SF-268 CNS) of Cc1cc(C)c(C#N)c(Sc2nc(C)c([N+](=O)[O-])c(C)c2C#N)n1 11.8 µM

Please state recorded TGI (tested on SF-268 CNS) of O=C(O)CCNS(=O)(=O)c1ccc2ccccc2c1 > 100 µM

Please state recorded TGI (tested on SF-268 CNS) of CC(=O)N1CCN(CCNC(=O)n2cc(-c3ccncc3)c(-c3cc(O)cc(Cl)c3)n2)CC1 35.2 µM

Please state recorded TGI (tested on SF-268 CNS) of Cc1cccc(C(=O)O)c1C(=O)c1cccc2ccccc12 > 100 µM

Please state recorded TGI (tested on SF-268 CNS) of CSc1cnc2ccccc2c1Sc1c[nH]c2ccccc2c1=O > 100 µM

Please state recorded TGI (tested on SF-268 CNS) of CC(C)CCOC(=O)NC(Nc1ccc(F)cc1)(C(F)(F)F)C(F)(F)F > 100 µM

Please state recorded TGI (tested on SF-268 CNS) of Cc1ccccc1NC(=O)CC(=O)NNC(Sc1ccccc1)c1cc(N=Nc2ccc(Br)cc2)ccc1O (stereo unspecified) > 10 µM

Please state recorded TGI (tested on SF-268 CNS) of Cc1c(C(=O)O)n(C)c(=O)n(C)c1=O > 100 µM

Please state recorded TGI (tested on SF-268 CNS) of COC1=CC(=O)N(C)C(O)C1(C#N)OC1OC(CO)C(O)C(O)C1O (stereo unspecified) > 100 µM
